test system: P-388 cells; test: Antineoplastic action against implanted P-388 tumor, CDF1 mice, i.p.-i.p. (T/C %); format: in vivo; conditions: Mus musculus, P388, ip, read-out: T/C %, (Treatment/Control %)
Recorded response vs control in vivo at 0.05 mg/kg by entry
Please give a number only; it is taken to be in %.

Example compounds with recorded response vs control in vivo at 0.05 mg/kg:
CCCCCCCOc1ccc2cc1Oc1ccc(cc1)CC1C(=O)N(C)C(C2)C(=O)NC(C)C(=O)NC(C)C(=O)N(C)C(Cc2ccc(OC)cc2)C(=O)NC(C)C(=O)N1C (centres unmarked) [Ex. 8] :: 116
CCCC=CC(=O)Oc1ccc2cc1Oc1ccc(cc1)CC1C(=O)N(C)C(C2)C(=O)NC(C)C(=O)NC(C)C(=O)N(C)C(Cc2ccc(OC)cc2)C(=O)NC(C)C(=O)N1C (centres unmarked) [Ex. 44] :: 117
CCC(=O)Oc1ccc2cc1Oc1ccc(cc1)CC1C(=O)N(C)C(C2)C(=O)NC(C)C(=O)NC(C)C(=O)N(C)C(Cc2ccc(OC)cc2)C(=O)NC(C)C(=O)N1C (centres unmarked) [Ex. 23] :: 129

The compound listed as CCCC(C)C(=O)Oc1ccc2cc1Oc1ccc(cc1)CC1C(=O)N(C)C(C2)C(=O)NC(C)C(=O)NC(C)C(=O)N(C)C(Cc2ccc(OC)cc2)C(=O)NC(C)C(=O)N1C (centres unmarked) [Ex. 43] shows response vs control in vivo at 0.05 mg/kg equal to 117

The compound listed as CCCCCCOc1ccc2cc1Oc1ccc(cc1)CC1C(=O)N(C)C(C2)C(=O)NC(C)C(=O)NC(C)C(=O)N(C)C(Cc2ccc(OC)cc2)C(=O)NC(C)C(=O)N1C (centres unmarked) [Ex. 2, n-hexylether of the compound TPC-A] shows response vs control in vivo at 0.05 mg/kg equal to 110

The compound listed as CCOC(=O)CCCOc1ccc2cc1Oc1ccc(cc1)CC1C(=O)N(C)C(C2)C(=O)NC(C)C(=O)NC(C)C(=O)N(C)C(Cc2ccc(OC)cc2)C(=O)NC(C)C(=O)N1C (centres unmarked) [Ex. 19(2), ethoxycarbonylpropylether (2) of TPC-A] shows response vs control in vivo at 0.05 mg/kg equal to 114

The compound listed as CCCCCCCC(=O)Oc1ccc2cc1Oc1ccc(cc1)CC1C(=O)N(C)C(C2)C(=O)NC(C)C(=O)NC(C)C(=O)N(C)C(Cc2ccc(OC)cc2)C(=O)NC(C)C(=O)N1C (centres unmarked) [Ex. 29] shows response vs control in vivo at 0.05 mg/kg equal to 127

The compound listed as CCC(C)CC(=O)Oc1ccc2cc1Oc1ccc(cc1)CC1C(=O)N(C)C(C2)C(=O)NC(C)C(=O)NC(C)C(=O)N(C)C(Cc2ccc(OC)cc2)C(=O)NC(C)C(=O)N1C (centres unmarked) [Ex. 42] shows response vs control in vivo at 0.05 mg/kg equal to 115
